Target: Muscarinic acetylcholine receptor M4 (Homo sapiens) (UniProt P08173)
Sequence (P08173 whole entry, looked up): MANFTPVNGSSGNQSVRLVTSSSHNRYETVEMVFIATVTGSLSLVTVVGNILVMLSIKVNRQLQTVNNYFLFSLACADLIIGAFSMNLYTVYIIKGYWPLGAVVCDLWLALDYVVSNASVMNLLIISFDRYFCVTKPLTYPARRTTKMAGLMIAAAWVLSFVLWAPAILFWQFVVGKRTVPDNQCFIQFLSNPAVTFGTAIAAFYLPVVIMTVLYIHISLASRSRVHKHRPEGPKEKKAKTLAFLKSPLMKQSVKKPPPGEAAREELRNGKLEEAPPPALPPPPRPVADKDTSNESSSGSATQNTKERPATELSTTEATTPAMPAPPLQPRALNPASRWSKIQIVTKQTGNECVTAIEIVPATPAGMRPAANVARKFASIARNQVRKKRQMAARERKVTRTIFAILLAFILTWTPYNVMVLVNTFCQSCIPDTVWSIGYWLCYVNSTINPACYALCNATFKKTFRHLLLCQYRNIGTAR
Test: M4-linked GIRK flux change, two-sided – cell-based, HEK293 M4/GIRK, thallium flux, BTC-AM, M4 allosteric agonist project, primary screen (AID 625);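 further: thallium influx through GIRK channels coupled to M4 in HEK293 cells with BTC-AM dye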
Settings: at 10 µM, actives lie on both sides
Think of 0.006 as a floor: if fluorescence slope stands on it or above, it is criterion met; beneath it, criterion not met.

A selection of reference data follows.
> print(dat)
                                   compound              label
1  CC(C)(C)C1CCc2c(sc3c2C(=O)NC(c2ccco2)N3)C1 (configuration not stated)  criterion not met
2  CCN(CCO)C1CC(=O)N(c2ccccc2C)C1=O (configuration not stated)      criterion met
3  CC(c1ccco1)N(C(=O)COc1ccc(Cl)cc1Cl)c1ccccn1 (configuration not stated)  criterion not met

Qu. Reported fluorescence slope reaches at least 0.006 for `CCOc1ccc(Cl)cc1S(=O)(=O)N1CCCC1` ?
Ans. criterion not met

Qu. Reported fluorescence slope reaches at least 0.006 for `COc1cc(CNc2ccc(N3CCOCC3)c(C(=O)O)c2)ccc1OCC(N)=O` ?
Ans. criterion met

Qu. Reported fluorescence slope reaches at least 0.006 for `CC(=O)C1=C(N2CCCCC2)CCC1=O` ?
Ans. criterion met

Qu. Reported fluorescence slope reaches at least 0.006 for `Cc1ccc(Cn2c(C(=O)NCCCN3CCOCC3)cc3sccc32)cc1` ?
Ans. criterion not met

Qu. Reported fluorescence slope reaches at least 0.006 for `O=c1cc(-c2ccccc2)[nH]c2nc3ccccc3n12` ?
Ans. criterion not met

Qu. Reported fluorescence slope reaches at least 0.006 for `Cc1cccc2cc(CN(Cc3nnnn3Cc3ccccc3)C3CCCC3)c(=O)[nH]c12` ?
Ans. criterion not met

Values from PubChem BioAssay
